# assay_protocol: Stability to nuclease digestion in 10% fetal calf serum (Example 38)
# Format: in vitro ADME
# experimental_setup: pH 8.0, 37° C., 50% full length oligomer digested, first three time points
Hi! Just check whether Half-Life for Degradation is below 6 h. Below gives Y, equal or above gives N.

substance="3169-1: 5'-GTCTTCCA(TGCAT)GTTGTCC-3' [MP(Rp)/DE][DE][MP(Rp)/DE] [Oligomer 3169-1]" assigned_label=Y
substance="3214-1: 5'-GTCTTCCA(TGCAT)GTTGTCC-3' [MP(Rp)/DE][PS/DE][MP(Rp)/DE] [Oligomer 3214-1]" assigned_label=Y
substance="2567-1: 5'-GTCTTCCA(TGCAT)GTTGTCC-3' [MP][DE][MP] [Oligomer 2567-1]" assigned_label=Y
substance="2681-1: 5'-GTCTTCCA(TGCAT)GTTGTCC-3' [MP][PS/DE][MP] [Oligomer 2681-1]" assigned_label=N
substance="3256-1: 5'-GTCTTCCA(TGCAT)GTTGTCC-3' [MP(Rp)/DE][PS][MP(Rp)/DE] [Oligomer 3256-1]" assigned_label=N
